conditions: 333.15 K; 101.33 kPa; Liquid; Vibrating tube method
attribute measured: mass density (kg/m3)

CCC(C)O (stereo not given): 771.1
CC(=O)O: 1004.01
CCC(C)(C)O: 770.27
CCC(=O)O: 950.35
CC(C)CO: 769.6

###

conditions: 298.15 K; 101.33 kPa; Liquid; Vibrating tube method
attribute measured: mass density (kg/m3)

CCC(C)(C)O [2-methylbutan-2-ol]: 804.39
CCC(C)O (stereo not given) [butan-2-ol]: 802.62
CC(C)CO [2-methyl-1-propanol]: 798.13
CC(=O)O [acetic acid]: 1043.65
CCC(=O)O [propanoic acid]: 988.15

###

details: 313.15 K; 101.33 kPa; Liquid; Vibrating tube method
attribute measured: mass density (kg/m3)

CCC(C)O (stereo not given): 789.75
CC(C)CO: 786.28
CCC(C)(C)O: 790.27
CC(=O)O: 1026.68
CCC(=O)O: 971.96

Origin of the recorded values: the NIST ThermoML archive (doi:10.1021/je201102x)
